- System: SMMC-7721
- PROCEDURE DETAILS: Cytotoxicity against human SMMC7721 cells assessed as reduction in cell viability after 48 hrs by MTT assay
- Assay type: functional, cell-based
- CONDITION LABEL: SMMC-7721, 48 h
Binarize IC50 at 50 µM; below is label 1, at or above is label 0.

{"columns": ["MOLECULE", "ASSIGNED CLASS"],
 "data": [
  ["C[C@H]1O[C@@H](O[C@H]2[C@H](O[C@H]3CC[C@@]4(C)[C@@H](CC[C@]5(C)[C@@H]4CC=C4[C@@H]6CC(C)(C)CC[C@]6(C(=O)OCCO[N+](=O)[O-])CC[C@]45C)[C@]3(C)CO)OC[C@H](O)[C@@H]2O)[C@H](O)[C@H](O)[C@H]1O", "label 1"],
  ["C[C@H]1O[C@@H](O[C@H]2[C@H](O[C@H]3CC[C@@]4(C)[C@@H](CC[C@]5(C)[C@@H]4CC=C4[C@@H]6CC(C)(C)CC[C@]6(C(=O)OCCCCCCO[N+](=O)[O-])CC[C@]45C)[C@]3(C)CO)OC[C@H](O)[C@@H]2O)[C@H](O)[C@H](O)[C@H]1O", "label 1"],
  ["C[C@H]1O[C@@H](O[C@H]2[C@H](O[C@H]3CC[C@@]4(C)[C@@H](CC[C@]5(C)[C@@H]4CC=C4[C@@H]6CC(C)(C)CC[C@]6(C(=O)NCC(=O)NCC(=O)O)CC[C@]45C)[C@]3(C)CO)OC[C@H](O)[C@@H]2O)[C@H](O)[C@H](O)[C@H]1O", "label 0"],
  ["C[C@H]1O[C@@H](O[C@H]2[C@H](O[C@H]3CC[C@@]4(C)[C@@H](CC[C@]5(C)[C@@H]4CC(O)[C@]46OC(=O)[C@@]7(CCC(C)(C)C[C@H]74)CC[C@@]56C)[C@]3(C)CO)OC[C@H](O)[C@@H]2O)[C@H](O)[C@H](O)[C@H]1O (some centres not stated)", "label 0"],
  ["CC(=O)OC[C@@]1(C)[C@@H]2CC[C@]3(C)[C@H](CC(O)[C@]45OC(=O)[C@@]6(CCC(C)(C)C[C@H]64)CC[C@@]35C)[C@@]2(C)CC[C@@H]1O[C@@H]1OC[C@H](OC(C)=O)[C@H](OC(C)=O)[C@H]1O[C@@H]1O[C@H](C)[C@H](OC(C)=O)[C@@H](OC(C)=O)[C@H]1OC(C)=O (some centres not stated)", "label 0"],
  ["C[C@H]1O[C@@H](O[C@H]2[C@H](O[C@H]3CC[C@@]4(C)[C@@H](CC[C@]5(C)[C@@H]4CC=C4[C@@H]6CC(C)(C)CC[C@]6(C(=O)NCCCCC(=O)O)CC[C@]45C)[C@]3(C)CO)OC[C@H](O)[C@@H]2O)[C@H](O)[C@H](O)[C@H]1O", "label 1"],
  ["C[C@H]1O[C@@H](O[C@H]2[C@H](O[C@H]3CC[C@@]4(C)[C@@H](CC[C@]5(C)[C@@H]4CC(=O)[C@@H]4[C@@H]6CC(C)(C)CC[C@]6(C(=O)O)CC[C@]45C)[C@]3(C)CO)OC[C@H](O)[C@@H]2O)[C@H](O)[C@H](O)[C@H]1O", "label 0"]
]}

* * *

- System: A549
- PROCEDURE DETAILS: Cytotoxicity against human A549 cells assessed as reduction in cell viability after 48 hrs by MTT assay
- Format: functional, cell-based
- CONDITION LABEL: A549, 48 h
pIC50: −log10 of the molar value.

{"columns": ["SMILES INPUT", "pIC50"],
 "data": [
  ["C[C@H]1O[C@@H](O[C@H]2[C@H](O[C@H]3CC[C@@]4(C)[C@@H](CC[C@]5(C)[C@@H]4C(=O)C=C4[C@@H]6CC(C)(C)CC[C@]6(C(=O)NCC(=O)O)CC[C@]45C)[C@]3(C)CO)OC[C@H](O)[C@@H]2O)[C@H](O)[C@H](O)[C@H]1O", "< 4.00"],
  ["C[C@@H]1O[C@@H](O[C@H]2[C@H](O[C@H]3CC[C@@]4(C)[C@@H](CC[C@]5(C)[C@@H]4CC=C4[C@@H]6CC(C)(C)CC[C@]6(C(=O)O)CC[C@]45C)[C@]3(C)CO)OC[C@H](O)[C@@H]2O)[C@H](O)[C@@H](O)[C@H]1O", "4.68 to 4.73"],
  ["C[C@H]1O[C@@H](O[C@H]2[C@H](O[C@H]3CC[C@@]4(C)[C@@H](CC[C@]5(C)[C@@H]4CC=C4[C@@H]6CC(C)(C)CC[C@]6(C(=O)OCCO[N+](=O)[O-])CC[C@]45C)[C@]3(C)CO)OC[C@H](O)[C@@H]2O)[C@H](O)[C@H](O)[C@H]1O", 4.10]
]}

* * *

- PROCEDURE DETAILS: Hemolytic activity against New Zealand rabbit erythrocytes after 60 mins
- Format: ADME, cell-based, Oryctolagus cuniculus, Erythrocyte
- CONDITION LABEL: read-out: HD50
Listed compounds paired with reported HC50 at 1 h

{"columns": ["COMPOUND", "LIMIT OPERATOR", "HC50 at 1 h (µM)"],
 "data": [
  ["C[C@H]1O[C@@H](O[C@H]2[C@H](O[C@H]3CC[C@@]4(C)[C@@H](CC[C@]5(C)[C@@H]4CC(=O)[C@@H]4[C@@H]6CC(C)(C)CC[C@]6(C(=O)NCC(=O)O)CC[C@]45C)[C@]3(C)CO)OC[C@H](O)[C@@H]2O)[C@H](O)[C@H](O)[C@H]1O", "=", 339],
  ["C[C@@H]1O[C@@H](O[C@H]2[C@H](O[C@H]3CC[C@@]4(C)[C@@H](CC[C@]5(C)[C@@H]4CC=C4[C@@H]6CC(C)(C)CC[C@]6(C(=O)O)CC[C@]45C)[C@]3(C)CO)OC[C@H](O)[C@@H]2O)[C@H](O)[C@@H](O)[C@H]1O", "=", 3.86],
  ["CC1(C)CC[C@]2(C(=O)N3CCN(CCC(=O)O)CC3)CC[C@]3(C)C(=CC[C@@H]4[C@@]5(C)CC[C@H](O)[C@@](C)(CO)[C@@H]5CC[C@]43C)[C@@H]2C1", ">", 500],
  ["C[C@H]1O[C@@H](O[C@H]2[C@H](O[C@H]3CC[C@@]4(C)[C@@H](CC[C@]5(C)[C@@H]4CC(O)[C@]46OC(=O)[C@@]7(CCC(C)(C)C[C@H]74)CC[C@@]56C)[C@]3(C)CO)OC[C@H](O)[C@@H]2O)[C@H](O)[C@H](O)[C@H]1O (some centres undefined)", "=", 77.7],
  ["C[C@H]1O[C@@H](O[C@H]2[C@H](O[C@H]3CC[C@@]4(C)[C@@H](CC[C@]5(C)[C@@H]4C/C(=N/O)[C@@H]4[C@@H]6CC(C)(C)CC[C@]6(C(=O)O)CC[C@]45C)[C@]3(C)CO)OC[C@H](O)[C@@H]2O)[C@H](O)[C@H](O)[C@H]1O", ">", 500],
  ["C[C@H]1O[C@@H](O[C@H]2[C@H](O[C@H]3CC[C@@]4(C)[C@@H](CC[C@]5(C)[C@@H]4C(=O)C=C4[C@@H]6CC(C)(C)CC[C@]6(C(=O)NCC(=O)O)CC[C@]45C)[C@]3(C)CO)OC[C@H](O)[C@@H]2O)[C@H](O)[C@H](O)[C@H]1O", "=", 461],
  ["C[C@H]1O[C@@H](O[C@H]2[C@H](O[C@H]3CC[C@@]4(C)[C@@H](CC[C@]5(C)[C@@H]4CC=C4[C@@H]6CC(C)(C)CC[C@]6(C(=O)OCCCCCCO[N+](=O)[O-])CC[C@]45C)[C@]3(C)CO)OC[C@H](O)[C@@H]2O)[C@H](O)[C@H](O)[C@H]1O", "=", 3.79],
  ["C[C@H]1O[C@@H](O[C@H]2[C@H](O[C@H]3CC[C@@]4(C)[C@@H](CC[C@]5(C)[C@@H]4CC=C4[C@@H]6CC(C)(C)CC[C@]6(C(=O)NCCCCC(=O)O)CC[C@]45C)[C@]3(C)CO)OC[C@H](O)[C@@H]2O)[C@H](O)[C@H](O)[C@H]1O", "=", 228],
  ["C[C@H]1O[C@@H](O[C@H]2[C@H](O[C@H]3CC[C@@]4(C)[C@@H](CC[C@]5(C)[C@@H]4CC=C4[C@@H]6CC(C)(C)CC[C@]6(C(=O)NCC(=O)NCC(=O)O)CC[C@]45C)[C@]3(C)CO)OC[C@H](O)[C@@H]2O)[C@H](O)[C@H](O)[C@H]1O", ">", 500],
  ["C[C@H]1O[C@@H](O[C@H]2[C@H](O[C@H]3CC[C@@]4(C)[C@@H](CC[C@]5(C)[C@@H]4CC(=O)[C@@H]4[C@@H]6CC(C)(C)CC[C@]6(C(=O)O)CC[C@]45C)[C@]3(C)CO)OC[C@H](O)[C@@H]2O)[C@H](O)[C@H](O)[C@H]1O", "=", 190],
  ["C[C@H]1O[C@@H](O[C@H]2[C@H](O[C@H]3CC[C@@]4(C)[C@@H](CC[C@]5(C)[C@@H]4CC=C4[C@@H]6CC(C)(C)CC[C@]6(C(=O)OCCO[N+](=O)[O-])CC[C@]45C)[C@]3(C)CO)OC[C@H](O)[C@@H]2O)[C@H](O)[C@H](O)[C@H]1O", "=", 16.2],
  ["COC(=O)CCN1CCN(C(=O)[C@]23CCC(C)(C)C[C@H]2C2=CC[C@@H]4[C@@]5(C)CC[C@H](OC(C)=O)[C@@](C)(COC(C)=O)[C@@H]5CC[C@@]4(C)[C@]2(C)CC3)CC1", ">", 500],
  ["C[C@H]1O[C@@H](O[C@H]2[C@H](O[C@H]3CC[C@@]4(C)[C@@H](CC[C@]5(C)[C@@H]4CC=C4[C@@H]6CC(C)(C)CC[C@]6(C(=O)OCCCCO[N+](=O)[O-])CC[C@]45C)[C@]3(C)CO)OC[C@H](O)[C@@H]2O)[C@H](O)[C@H](O)[C@H]1O", "=", 14.9],
  ["CC1(C)CC[C@]2(C(=O)O)CC[C@]3(C)C(=CC[C@@H]4[C@@]5(C)CC[C@H](O)[C@@](C)(CO)[C@@H]5CC[C@]43C)[C@@H]2C1", ">", 200]
]}

Ref: ChEMBL document CHEMBL4007448
